- Tested on: HL-60
- assay.text: NCI tumour cell line growth inhibition, 48 h
Active and inactive are the calls of the source. Cut-off read from the data, not from the text of the source: active = GI50 up to about 1.1 µM and inactive = higher.
measured.attribute: GI50

[[record]]
molecule = "CC1CC2OC(=O)C(C)C2CC2(C)C(OC3OC(CO)C(O)C(O)C3O)OCCC12 (stereo unspecified)"
test_system = "HL-60"
assay_value = "> 100 µM (inactive)"

[[record]]
molecule = "CC1(C)[C@H]2Cc3cc(-c4cc5c(cn4)[C@@H]4C[C@H]([C@@H]5[C@@H]5c6cc(-c7cc8c(cn7)[C@@H]7C[C@H](C8)C7(C)C)ncc6[C@@H]6C[C@H]5C6(C)C)C4(C)C)ncc3[C@@H]1C2"
test_system = "HL-60"
assay_value = "> 100 µM (inactive)"

[[record]]
molecule = "COc1ccc(C2=NN(C(C)=O)c3nc4ccccc4nc3O2)cc1"
test_system = "HL-60"
assay_value = "> 100 µM (inactive)"

[[record]]
molecule = "CN1CCc2[nH]c3ccccc3c2C1"
test_system = "HL-60"
assay_value = "87.9 µM (inactive)"

[[record]]
molecule = "CSCSCC(CO)NC(=O)/C(C)=C\\c1c(C)[nH]c(=O)[nH]c1=O (stereo unspecified)"
test_system = "HL-60"
assay_value = "> 250 µM (inactive)"


Read the next record carefully.
Query string: For `N#CC1(N2CCCC2)CCC2(CC1)OCCO2` , write its GI50.
Result string: > 100 µM (inactive)

###

- Test system: SF-539
- assay.text: NCI tumour cell line growth inhibition, 48 h
Where a name gives a salt, the structure may show the parent alone. Calls of active or inactive are those of the source. Cut-off read from the data, not from the text of the source: active = GI50 up to about 1.1 µM and inactive = higher.
measured.attribute: GI50

A selection of reference data follows.
[[record]]
compound = "Clc1ccc(C2=NN=C3C(c4ccccc4)=Nc4ccccc4N3C2)cc1"
test_system = "SF-539"
assay_value = "19.3 µM (inactive)"

[[record]]
compound = "Cc1ccc(-c2cn3c(nc4ccccc43)c(C)n2)cc1"
test_system = "SF-539"
assay_value = "> 54.3 µM (inactive)"

[[record]]
compound = "COC(=O)N/N=C(\\Cc1ccccc1)CN(C)C"
test_system = "SF-539"
assay_value = "> 100 µM (inactive)"

[[record]]
compound = "N#Cc1ncn(-c2ccccc2)c1N"
test_system = "SF-539"
assay_value = "> 100 µM (inactive)"

[[record]]
compound = "COc1ccc2nc3cc(Cl)ccc3c(NCCNC(=O)Cn3c(=O)n(C)c(=O)c4c3nc3c(c(=O)n(C)c(=O)n3C)[n+]4[O-])c2c1"
test_system = "SF-539"
assay_value = "23.7 µM (inactive)"

[[record]]
compound = "COc1cc2cc(C(=O)N3CC(CCl)c4ccc([N+](=O)[O-])cc43)[nH]c2c(OC)c1OC (stereo not given)"
test_system = "SF-539"
assay_value = "> 100 µM (inactive)"

[[record]]
compound = "O=C(O)CC(NC(=O)C(F)(F)F)C(=O)NC1Cc2ccccc2OC1=O (stereo not given)"
test_system = "SF-539"
assay_value = "> 100 µM (inactive)"

[[record]]
compound = "CC1=NCCc2c1[nH]c1cc(O)ccc21 [HARMALOL HYDROCHLORIDE]"
test_system = "SF-539"
assay_value = "> 100 µM (inactive)"


I'm hoping you can list GI50 for every compound here, please.
1. COC12OCCN(C)C1=CC(=O)C1=NNC(C)C12 (stereo not given)
2. N#Cc1c2c(c(N=P(c3ccccc3)(c3ccccc3)c3ccccc3)n3c1nc1ccccc13)CCCC2

Result string:
["> 100 µM (inactive)", "45.1 µM (inactive)"]

###

- Tested on: LOX IMVI
- assay.text: NCI tumour cell line growth inhibition, 48 h
The source made the active and inactive calls. No stated cut-off is given here; in the data, active = GI50 up to about 1.1 µM and inactive = higher.
Return exactly one item of YES (active), NO (inactive)

Record excerpt, results attached:
[[record]]
molecule = "O=C(CCl)Nc1ccc(-c2nc3ccccc3s2)cc1"
test_system = "LOX IMVI"
class_label = "YES"

[[record]]
molecule = "O=C(O)CC(NC(=O)CP(=O)(O)O)C(=O)O (centres undefined)"
test_system = "LOX IMVI"
class_label = "NO"

[[record]]
molecule = "N#Cc1ccc(-n2c3ccccc3c3ccc4c(c32)C(=O)C=CC4=O)cc1"
test_system = "LOX IMVI"
class_label = "NO"

[[record]]
molecule = "Oc1ccccc1CNCc1ccccc1O"
test_system = "LOX IMVI"
class_label = "NO"


Query string: I'd appreciate the recorded outcome for O=C(O)CCSC(CC1(c2ccc(Cl)cc2)NC(=O)CCS1)c1ccccc1 (centres undefined) from this test.
Result string: NO

Query string: I'd appreciate the recorded outcome for `CN(C)CC/C(=N\Nc1ccc([N+](=O)[O-])cc1)c1ccccc1` from this test.
Result string: NO

Query string: I'd appreciate the recorded outcome for `CCOC(=O)c1cc2c(OC)cc(OC)cc2oc1=O` from this test.
Result string: NO

Query string: I'd appreciate the recorded outcome for `O=[N+]([O-])/C(C(Cl)=C(Cl)Cl)=C(\Nc1cccc2ccccc12)n1nnc2ccccc21` from this test.
Result string: NO

Query string: I'd appreciate the recorded outcome for `CCc1ccc(Cc2ccc(CC)c(NC(=O)C(=O)Cc3nc4ccccc4nc3C)c2CC)c(CC)c1NC(=O)C(=O)Cc1nc2ccccc2nc1C` from this test.
Result string: NO

Query string: I'd appreciate the recorded outcome for `O=c1c(Sc2c(O)c3ccccc3c3ccccc3c2=O)c(O)c2ccccc2c2ccccc12` from this test.
Result string: NO

Query string: I'd appreciate the recorded outcome for `Cc1cc2c(cc1C)C(=O)/C(=C/c1ccccc1C(=O)O)C2` from this test.
Result string: NO

Query string: I'd appreciate the recorded outcome for `Cc1cc(C)cc(Nc2nnc3n2S(=O)(=O)c2cc(C)c(Cl)cc2S3)c1` from this test.
Result string: NO

Query string: I'd appreciate the recorded outcome for `CC(C)(CCCCC(C)(C)C1NC(=O)N1)C1NC(=O)N1` from this test.
Result string: NO

###

- Test system: SR
- assay.text: NCI tumour cell line growth inhibition, 48 h
The source made the active and inactive calls. Rule as the data show it: active = GI50 up to about 1.1 µM and inactive = higher.
Return exactly one item of active, inactive

[[record]]
compound = "O=C(Nc1ccccc1)O/N=C(/CBr)c1ccccc1"
class_label = "inactive"

[[record]]
compound = "CC(C)(C)c1cc(OCc2nnc3sc(-c4ccc(Cl)cc4)nn23)c(Cl)cc1OCc1nnc2sc(-c3ccc(Cl)cc3)nn12"
class_label = "active"

[[record]]
compound = "CC(C)[Si]1(C(C)C)OCC2OC(n3ccc(=O)[nH]c3=O)C([Se]c3ccccc3)C2O[Si](C(C)C)(C(C)C)O1 (centres undefined)"
class_label = "inactive"

[[record]]
compound = "CC(C)(C)NC(=O)/C(=C\\Sc1ccccc1)c1ccc2c(c1)OCO2"
class_label = "inactive"

[[record]]
compound = "Cn1c2ccccc2c(=NNc2ccc(S(=O)(=O)N=C(N)N)cc2)c2ccccc21"
class_label = "inactive"


Query string: I'd appreciate the recorded outcome for `CCOC(=O)NC(=O)c1cn(CCN2CCN(C(=O)CCCCCCCCCCC(=O)N3CCN(CCn4cc(C(=O)NC(=O)OCC)c(=O)[nH]c4=O)CC3)CC2)c(=O)[nH]c1=O` from this test.
Result string: inactive

Query string: I'd appreciate the recorded outcome for `Cc1ccc2c3c1O[C@H]1c4[nH]c5ccccc5c4C[C@@]4(O)[C@@H](C2)N(C)CC[C@]314` from this test.
Result string: inactive

###

- System: OVCAR-3
- assay.text: NCI tumour cell line growth inhibition, 48 h
The source made the active and inactive calls. Cut-off read from the data, not from the text of the source: active = GI50 up to about 1.1 µM and inactive = higher.
Answer each item with its documented GI50.

[[record]]
molecule = "CC(=O)O/C=C1/C[C@H]2[C@@H]3CCC4CC(C(C)=O)CC[C@]4(C)[C@H]3CC[C@]2(C)C1=O (stereo partly specified)"
assay_value = "33.2 µM (inactive)"

[[record]]
molecule = "N#Cc1nc(C#N)c(NC(=O)c2ccccc2C(=O)O)[nH]1"
assay_value = "> 100 µM (inactive)"

[[record]]
molecule = "CCN(CC)Cc1ccc(Nc2c3ccccc3nc3ccccc23)cc1"
assay_value = "3.03 µM (inactive)"

[[record]]
molecule = "O=C(O)c1cncc(C(=O)O)c1"
assay_value = "> 100 µM (inactive)"

[[record]]
molecule = "CN(C)CCNC(=O)c1cccc2nc3cccc(F)c3nc12"
assay_value = "1.99 µM (inactive)"


I'm hoping you can list GI50 for every molecule here, please.
1. Cc1nc2ccc(/N=N/N(C)C)cc2[nH]1
2. ClCCCN1CCCCC1CCl (stereo unspecified)
3. Cn1c(=O)c2c(nc3sc4ncccc4c(=O)n32)n(C)c1=O

Result string:
1. > 100 µM (inactive)
2. > 100 µM (inactive)
3. > 100 µM (inactive)

###

- Test system: SNB-19
- assay.text: NCI tumour cell line growth inhibition, 48 h
Calls of active or inactive are those of the source. Rule as the data show it: active = GI50 up to about 1.1 µM and inactive = higher.
measured.attribute: GI50

[[record]]
compound = "NC(CC1=CS(=O)(=O)c2ccc(Cl)cc21)C(=O)O (centres undefined)"
test_system = "SNB-19"
measured_attribute = "GI50"
assay_value = "> 100 µM (inactive)"

[[record]]
compound = "N#Cc1ncn(-c2ccccc2)c1N"
test_system = "SNB-19"
measured_attribute = "GI50"
assay_value = "> 100 µM (inactive)"

[[record]]
compound = "Cn1nc(-c2ccccc2)c2c(-c3ccccc3)c3cc(Cl)ccc3nc21"
test_system = "SNB-19"
measured_attribute = "GI50"
assay_value = "> 100 µM (inactive)"

[[record]]
compound = "C[C@]12CC[C@H]3[C@@H](CCC4=CC(=O)C=C[C@@]43O)[C@@H]1CCC2=O"
test_system = "SNB-19"
measured_attribute = "GI50"
assay_value = "> 100 µM (inactive)"

[[record]]
compound = "Cc1ccc(N(C)S(=O)(=O)c2ccccc2[N+](=O)[O-])cc1"
test_system = "SNB-19"
measured_attribute = "GI50"
assay_value = "64.9 µM (inactive)"

[[record]]
compound = "O=C1C=C2CC[C@H]3[C@@H]4CC[C@H](OC(=O)c5cccc6cc7ccccc7nc56)[C@H]4CC[C@@H]3[C@H]2CC1"
test_system = "SNB-19"
measured_attribute = "GI50"
assay_value = "> 100 µM (inactive)"


I'm hoping you can list GI50 for every compound here, please.
1. CC(C)NC(=O)OCc1c(COC(=O)NC(C)C)c(-c2cc[n+](COC(=O)C(C)(C)C)cc2)n2c1CCC2
2. O=C(COC(=O)c1cccc2c(=O)c3ccccc3[nH]c12)Nc1ccc(C(=O)O)cc1
3. O=c1c2cc(S(=O)(=O)Nc3c(Cl)cccc3Cl)ccc2ncn1NS(=O)(=O)c1ccc2ccccc2c1

Result string:
["> 100 µM (inactive)", "> 100 µM (inactive)", "32.6 µM (inactive)"]
